Every entry's value here was drawn from patent US10870639B2.

Biological target: FLT3 ITD (Homo sapiens, UniProt P36888, ITD)
Sequence (P36888 whole entry, looked up, change not shown): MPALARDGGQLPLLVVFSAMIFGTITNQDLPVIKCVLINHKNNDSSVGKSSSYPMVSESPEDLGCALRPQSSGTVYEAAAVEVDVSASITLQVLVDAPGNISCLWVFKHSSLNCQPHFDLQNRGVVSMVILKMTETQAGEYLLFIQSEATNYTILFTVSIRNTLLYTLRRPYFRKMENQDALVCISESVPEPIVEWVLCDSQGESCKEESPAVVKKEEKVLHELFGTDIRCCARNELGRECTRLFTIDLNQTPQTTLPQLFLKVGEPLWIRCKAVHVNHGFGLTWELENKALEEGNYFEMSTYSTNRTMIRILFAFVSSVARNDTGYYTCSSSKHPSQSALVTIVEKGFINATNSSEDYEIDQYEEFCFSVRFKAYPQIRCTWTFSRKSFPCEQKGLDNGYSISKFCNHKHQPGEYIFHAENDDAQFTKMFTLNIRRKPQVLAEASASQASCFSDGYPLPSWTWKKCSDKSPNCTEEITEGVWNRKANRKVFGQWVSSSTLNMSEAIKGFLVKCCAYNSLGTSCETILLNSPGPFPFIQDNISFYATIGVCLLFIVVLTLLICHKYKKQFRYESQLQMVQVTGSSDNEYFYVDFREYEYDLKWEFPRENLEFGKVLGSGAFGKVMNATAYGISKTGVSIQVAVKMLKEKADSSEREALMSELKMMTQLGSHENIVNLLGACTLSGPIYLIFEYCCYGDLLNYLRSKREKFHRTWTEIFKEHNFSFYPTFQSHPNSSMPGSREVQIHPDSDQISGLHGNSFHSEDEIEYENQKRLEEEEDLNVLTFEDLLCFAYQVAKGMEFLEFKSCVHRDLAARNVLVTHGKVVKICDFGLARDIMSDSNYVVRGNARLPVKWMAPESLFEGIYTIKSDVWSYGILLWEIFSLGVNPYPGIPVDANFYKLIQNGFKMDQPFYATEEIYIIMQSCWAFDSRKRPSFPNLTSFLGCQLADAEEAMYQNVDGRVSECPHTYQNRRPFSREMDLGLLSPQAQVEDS
Assay: LanthaScreen kinase binding assay, FLT3 ITD
Listed here are compounds together with their documented IC50.
# output: bare number, implied unit nM

Examples with answers:
C[C@@H]1CN(Cc2cc(Nc3ncc(Cl)c(-c4c[nH]c5ccccc45)n3)cc(C3CC3)c2)CCN1 [Example 6] : 1.8
Cc1cnc(Nc2cc(CN3C[C@@H](C)N[C@@H](C)C3)cc(C3CC3)c2)nc1-c1c[nH]c2ccccc12 [Example 13] : 8.7
Cc1ccc2c(-c3nc(Nc4cc(CN5C[C@@H](C)N[C@@H](C)C5)cc(C5CC5)c4)ncc3F)c[nH]c2c1 [Example 12] : 2.5
Cc1cc2[nH]cc(-c3nc(Nc4cc(CN5C[C@@H](C)N[C@@H](C)C5)cc(C5CC5)c4)ncc3Cl)c2cc1O [Example 18] : 13
Cc1ccc2c(-c3nc(Nc4cc(CN5C[C@H](CO)N[C@H](C)C5)cc(C5CC5)c4)ncc3Cl)c[nH]c2c1 [Example 26] : 2.3
Cc1ccc2c(-c3nc(Nc4cc(CN5C[C@@H](C)NC(C)(C)C5)cc(C5CC5)c4)ncc3Cl)c[nH]c2c1 [Example 25] : 20

Returns the measured IC50 for the input compound. Input: Cc1ccc2c(-c3nc(Nc4cc(CN5C[C@@H](C)N[C@@H](C)C5)cc(C5CC5)c4)ncc3Cl)c[nH]c2c1O [Example 22]
2.4

Returns the measured IC50 for the input compound. Input: C[C@@H]1CN(Cc2cc(Nc3ncc(Cl)c(-c4c[nH]c5cc(Cl)ccc45)n3)cc(C3CC3)c2)C[C@H](C)N1 [Example 2]
1.5

Returns the measured IC50 for the input compound. Input: C[C@@H]1CN(Cc2cc(Nc3ncc(Cl)c(-c4c[nH]c5cc(CO)ccc45)n3)cc(C3CC3)c2)C[C@H](C)N1 [Example 16]
0.5

Returns the measured IC50 for the input compound. Input: C[C@@H]1CN(Cc2cc(Nc3ncc(Cl)c(-c4c[nH]c5cc(F)ccc45)n3)cc(C3CC3)c2)C[C@H](C)N1CCO [Example 3]
8.1

Returns the measured IC50 for the input compound. Input: Cc1ccc2c(-c3nc(Nc4cc(CN5C[C@@H](C)N(CCO)[C@@H](C)C5)cc(C5CC5)c4)ncc3Cl)c[nH]c2c1 [Example 5]
7.2

Returns the measured IC50 for the input compound. Input: C[C@@H]1CN(Cc2cc(Nc3ncc(Cl)c(-c4c[nH]c5ccccc45)n3)cc(C3CC3)c2)C[C@H](C)N1CCO [Example 4]
3.6

Returns the measured IC50 for the input compound. Input: Cc1ccc2c(-c3nc(Nc4cc(CN5C[C@@H](C)N(O)[C@@H](C)C5)cc(C5CC5)c4)ncc3Cl)c[nH]c2c1 [Example 31]
6.9
